TEST_DESCRIPTION: ATG_MRE_CIS: Attagene CIS-FACTORIAL HepG2 Assay for human Metal Responsive Element (MRE) (AID 2282954)
TEST_CONTEXT: HepG2 MRE cis-reporter transcription, Attagene multiplex; actives raise or lower the signal
Calls of active or inactive are those of the source. The calls were made as follows: active = hit-call score of the fitted dose curve at least 0.9, where 1 is the maximum; inactive = score below 0.9.
Log the outcome using a class from active, inactive

[[record]]
molecule = "CC/C=C\\C/C=C\\C/C=C\\CCCCCCCC(=O)OC"
assigned_category = "inactive"

[[record]]
molecule = "CCCCCCC=O"
assigned_category = "inactive"

[[record]]
molecule = "CCNc1nc(NC(C)(C)C)nc(OC)n1"
assigned_category = "inactive"

[[record]]
molecule = "C=C(C)C(=O)OCC(O)COc1ccc(C(C)(C)c2ccc(OCC(O)COC(=O)C(=C)C)cc2)cc1 (stereo not given)"
assigned_category = "active"


// next entry
query: What did the test return for CC1(C)CCC[C@]2(C)[C@H]3CC(=O)O[C@]3(C)CC[C@@H]12 ?
result: inactive
